System: DIV17
method_notes: qHTS profiling for inhibitors of Plasmodium falciparum proliferation (AID 504749); note: nearly all actives have a fitted effect of over 60% in size
assay_context: P. falciparum in erythrocytes, SYBR Green DNA, 72 h; series mostly up to 12.8 µM
Records with an inconclusive call do not appear. Active and inactive are the calls of the source. Calls come from the whole dose curve; as a rule, active = well fitted inhibition curve with a large enough effect; inconclusive = small, poorly fitted or top-dose-only effect; inactive = flat fitted curve, though single readings scatter.
Allowed answers: active, inactive

Check out these entries, answers already filled in.
| compound | class_label |
| --- | --- |
| O=C(O)/C=C\c1ccc(Cn2ccnc2)cc1 | inactive |
| CCN(CC)CCC[C@H](C)Nc1c2ccc(Cl)cc2nc2ccc(OC)cc12 | active |
| CC(=O)Nc1c(I)c(C(=O)N[C@H]2[C@@H](O)[C@H](O)[C@H](CO)O[C@@H]2O)c(I)c(N(C)C(C)=O)c1I | inactive |
| CC(C)NC[C@H](O)c1cc(O)cc(O)c1 | inactive |
| N[C@@H](CO)C(=O)NNCc1ccc(O)c(O)c1O | inactive |

IN: For this compound, state the assay outcome: O=c1[nH]c(=O)n([C@@H]2C[C@H](O)[C@H](CO)O2)cc1I
OUT: inactive

IN: Recorded test call requested for Cn1c(=O)c2c(ncn2C[C@@H](O)CO)n(C)c1=O
OUT: inactive

IN: How did this test come out for CN[C@@H](CC(C)C)C(=O)N[C@@H]1C(=O)N[C@H](CC(N)=O)C(=O)N[C@@H]2C(=O)N[C@H]3C(=O)N[C@H](C(=O)N[C@H](C(=O)O)c4cc(O)cc(O)c4-c4cc3ccc4O)[C@H](O)c3ccc(c(Cl)c3)Oc3cc2cc(c3O[C@H]2O[C@@H](CO)[C@@H](O)[C@@H](O)[C@@H]2O[C@@H]2C[C@](C)(N)[C@H](O)[C@H](C)O2)Oc2ccc(cc2Cl)[C@@H]1O ?
OUT: inactive

IN: Recorded test call requested for CO/N=C(/C(=O)NC1C(=O)N2C(C(=O)O)=C(CSc3nc(=O)c(O)nn3C)CSC12)c1csc(N)n1 (configuration not stated)
OUT: inactive

IN: Could you kindly confirm the outcome this assay logged for CCN1C(=O)N[C@@H](c2ccccc2)C1=O ?
OUT: inactive

IN: Check the results log: what was the call for COc1ccccc1OC[C@H](O)COC(N)=O ?
OUT: inactive

IN: I would be grateful if you could indicate the recorded call for CN(N=O)C(=O)N[C@H]1[C@@H](O)[C@H](O)[C@H](CO)O[C@@H]1O .
OUT: inactive

IN: Please state the recorded outcome for this compound: NC(=O)c1cc[n+](CC2=C(C(=O)O)N3C(=O)[C@@H](NC(=O)[C@H](c4ccccc4)S(=O)(=O)[O-])[C@@H]3SC2)cc1
OUT: active

IN: How was CO[C@]1(NC(=O)CSCC#N)C(=O)N2C(C(=O)O)=C(CSc3nnnn3C)CS[C@H]21 classified in this test?
OUT: inactive

IN: Check the results log: what was the call for CC(C)(O/N=C(\C(=O)N[C@@H]1C(=O)N2C(C(=O)[O-])=C(C[n+]3ccccc3)CS[C@@H]12)c1csc(N)n1)C(=O)O ?
OUT: inactive

IN: I'd appreciate the recorded outcome for CC(C)(C)NC[C@H](O)c1cc(O)cc(O)c1 from this test.
OUT: inactive

IN: Test call, this compound: CC(C)N1CCN(c2ccc(OC[C@@H]3CO[C@@](Cn4cncn4)(c4ccc(Cl)cc4Cl)O3)cc2)CC1
OUT: inactive
